# Tested on: Escherichia coli TOP10;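 further: peptides expressed intracellularly from a pBAD plasmid library in pooled LB shake-flask culture, induced with 0.3% L-arabinose, DNA abundance read by NGS, three biological replicates, DESeq2 with apeglm shrinkage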
# Procedure details: shrunken log2 fold change of peptide-encoding DNA abundance (4.5 h post-induction vs induction); higher = less antimicrobial activity (less host growth inhibition)
# Setup conditions: time post-induction: 4.5 h; library: site-saturation at positions 5, 18, 19, 20
Consider the reported shrunken log2 fold change of an entry and match it to a band in b0 (below -0.1), b1 (-0.1 to below 0.06), b2 (0.06 or more)

Reference set, count: 3
1) RRIRIRPPRLPRPRPRPSPYPRP    b0
2) RRIRMRPPRLPRPRPRPVLWPRP    b2
3) RRIRSRPPRLPRPRPRPCTIPRP    b0

Input line: In plain terms, what class is "RRIRNRPPRLPRPRPRPPMSPRP" ?
Output line: b1

Input line: In plain terms, what class is "RRIRNRPPRLPRPRPRPIRTPRP" ?
Output line: b0

Input line: In plain terms, what class is "RRIRHRPPRLPRPRPRPFWTPRP" ?
Output line: b0

Input line: In plain terms, what class is "RRIRVRPPRLPRPRPRPDSLPRP" ?
Output line: b0

Input line: In plain terms, what class is "RRIRERPPRLPRPRPRPSAAPRP" ?
Output line: b2

Input line: In plain terms, what class is "RRIRDRPPRLPRPRPRPVEEPRP" ?
Output line: b2

Input line: In plain terms, what class is "RRIRLRPPRLPRPRPRPCCAPRP" ?
Output line: b2

Input line: In plain terms, what class is "RRIRARPPRLPRPRPRPCSQPRP" ?
Output line: b0

Input line: In plain terms, what class is "RRIRPRPPRLPRPRPRPQPEPRP" ?
Output line: b2

Input line: In plain terms, what class is "RRIRDRPPRLPRPRPRPHCYPRP" ?
Output line: b0

Input line: In plain terms, what class is "RRIRNRPPRLPRPRPRPELMPRP" ?
Output line: b2

Input line: In plain terms, what class is "RRIRARPPRLPRPRPRPSHGPRP" ?
Output line: b2

Input line: In plain terms, what class is "RRIRFRPPRLPRPRPRPMFAPRP" ?
Output line: b1

Input line: In plain terms, what class is "RRIRMRPPRLPRPRPRPSDCPRP" ?
Output line: b2

Input line: In plain terms, what class is "RRIRMRPPRLPRPRPRPNNGPRP" ?
Output line: b1

Input line: In plain terms, what class is "RRIRPRPPRLPRPRPRPHHQPRP" ?
Output line: b0

Input line: In plain terms, what class is "RRIRERPPRLPRPRPRPLDGPRP" ?
Output line: b1

Input line: In plain terms, what class is "RRIRTRPPRLPRPRPRPRYCPRP" ?
Output line: b0

Input line: In plain terms, what class is "RRIRFRPPRLPRPRPRPVELPRP" ?
Output line: b1

Input line: In plain terms, what class is "RRIRGRPPRLPRPRPRPSAIPRP" ?
Output line: b2
